molecular target: SARS-CoV-2 M^pro (Severe acute respiratory syndrome coronavirus 2 (2019-nCoV) (SARS-CoV-2)); assay: biochemical; conditions: read-out: Activity (% enzyme activity by fluorescence relative to initial enzyme activity), compound at 17 μM, duplicates, 20 min pre-incubation
MEASURE: remaining activity at 17 µM

Query: Please list remaining activity at 17 µM recorded for the compound "CC(C)=CCc1c2c(c(O)c3c(=O)c(-c4ccc(O)cc4)coc13)C=CC(C)(C)O2"
Result: 10 to 80%

Query: Please list remaining activity at 17 µM recorded for the compound "CC(C)=CCc1c(O)c(CC=C(C)C)c2c(c1O)C(=O)C[C@@H](c1ccc(O)cc1O)O2"
Result: 10 to 80%

Query: Please list remaining activity at 17 µM recorded for the compound "CC(C)=CCc1c(O)cc(O)c2c1O[C@H](c1ccc3c(c1)C=CC(C)(C)O3)CC2=O"
Result: > 80%

Query: Please list remaining activity at 17 µM recorded for the compound CC(C)=CCc1c(O)c(CC=C(C)C)c2oc3c(c(=O)c2c1O)C(C=C(C)C)Oc1cc(O)c(O)cc1-3 (stereo not shown)
Result: > 80%

Query: Please list remaining activity at 17 µM recorded for the compound CC(C)=CCCC1(C)C=Cc2c(O)ccc(-c3oc4cc(O)cc(O)c4c(=O)c3CC=C(C)C)c2O1 (stereo not shown)
Result: > 80%

Query: Please list remaining activity at 17 µM recorded for the compound "CC(C)=CCc1c(O)cc(O)c2c1O[C@H](c1ccccc1)CC2=O"
Result: > 80%

Query: Please list remaining activity at 17 µM recorded for the compound CC(C)=CCc1c(O)ccc([C@H]2COc3cc(O)cc(O)c3C2=O)c1O [Dihydrolicoisoflavone]
Result: > 80%

---

molecular target: SARS-CoV-2 M^pro (Severe acute respiratory syndrome coronavirus 2 (2019-nCoV) (SARS-CoV-2)); test: biochemical; settings: IC50; compounds evaluated at 0.015-300 μM
Assignment: determine reported pIC50 for the given compounds.
Give only the number. pIC50 is defined as minus log10 of concentration in molar units.

Query: Please list pIC50 recorded for the compound "COc1c(O)cc2oc(-c3ccc(O)c(O)c3)cc(=O)c2c1O"
Result: 5.40

Query: Please list pIC50 recorded for the compound "O=c1cc(-c2ccc(O)c(-c3c(O)cc(O)c4c(=O)cc(-c5ccc(O)cc5)oc34)c2)oc2cc(O)cc(O)c12"
Result: 5.10

---

biological target: UniProt:P0DTD1; test: biochemical; details: read-out: Activity (% enzyme activity by fluorescence relative to initial enzyme activity), compound at 17 μM, duplicates, 20 min pre-incubation
MEASURE: remaining activity at 17 µM

Query: Please list remaining activity at 17 µM recorded for the compound "CC(C)=CCc1c(O)ccc2c1O[C@H](c1ccc(O)cc1)CC2=O"
Result: > 80%

Query: Please list remaining activity at 17 µM recorded for the compound "CC(C)=CCc1c([C@@H]2CCc3ccc(O)cc3O2)cc2c(c1O)OC(C)(C)C=C2"
Result: > 80%

Query: Please list remaining activity at 17 µM recorded for the compound "CC(C)=CCc1c(O[C@@H]2O[C@H](CO)[C@@H](O)[C@H](O)[C@H]2O)cc(O)c2c1O[C@H](c1ccc(O)cc1)[C@@H](O)C2=O"
Result: > 80%

Query: Please list remaining activity at 17 µM recorded for the compound C=C(C)C(O)Cc1cc(-c2coc3cc(O)c(CC=C(C)C)c(O)c3c2=O)ccc1O (centres unmarked)
Result: > 80%

Query: Please list remaining activity at 17 µM recorded for the compound "CC(C)=CCc1c(O)cc(O)c2c(=O)c(O)c(-c3ccc(O)cc3)oc12"
Result: > 80%

Query: Please list remaining activity at 17 µM recorded for the compound "CC(C)=CCc1c(O)cc2occ(-c3ccc(O)cc3)c(=O)c2c1O"
Result: > 80%

Query: Please list remaining activity at 17 µM recorded for the compound "COc1ccc(-c2oc3c(CC=C(C)C)c(O)cc(O)c3c(=O)c2O)cc1"
Result: > 80%

Query: Please list remaining activity at 17 µM recorded for the compound CC(C)=CCc1c(O[C@@H]2O[C@H](CO)[C@@H](O)[C@H](O)[C@H]2O)cc(O)c2c(=O)c(O[C@@H]3O[C@@H](C)[C@H](O)[C@@H](O)[C@H]3O)c(-c3ccc(O)cc3)oc12 [Epimedoside A]
Result: > 80%
